Below, each of the molecules is paired with its reported log10(MIC) value.
Test system: Aspergillus flavus
Test: Antifungal activity against Aspergillus flavus ATCC 16870 assessed as fungal growth inhibition incubated for 24 hrs by CLSI protocol based broth microdilution method
Assay type: functional
Answers are given as log10 of MIC in µg/mL.

Solved entries:
COc1ccc2c(c1)C1(CCN(C(=O)/C=C/C(=O)Nc3ccc(C(F)(F)F)cc3)CC1)OC(=O)N2    2.11
NC(=O)OC[C@H](O)[C@@H](O)[C@H](N)C(=O)N[C@H](C(=O)O)[C@H]1O[C@@H](n2cc(CO)c(=O)[nH]c2=O)[C@H](O)[C@@H]1O [POLYOXIN B]    1.81
COc1ccc2c(c1)C1(CCN(C(=O)/C=C/C(=O)Nc3ccccc3[N+](=O)[O-])CC1)OC(=O)N2    2.71
COc1ccc2c(c1)C1(CCN(C(=O)/C=C/C(=O)Nc3ccc(Br)cc3)CC1)OC(=O)N2    1.51
COc1ccc2c(c1)C1(CCN(C(=O)/C=C/C(=O)Nc3ccccc3)CC1)OC(=O)N2    1.73

Which log10(MIC) is listed for COc1ccc2c(c1)C1(CCN(C(=O)/C=C/C(=O)Nc3ccccc3Br)CC1)OC(=O)N2 ?
1.81

Which log10(MIC) is listed for COc1ccc2c(c1)C1(CCN(C(=O)/C=C/C(=O)Nc3cccc([N+](=O)[O-])c3)CC1)OC(=O)N2 ?
2.41

Which log10(MIC) is listed for COc1cc(Br)c(NC(=O)/C=C/C(=O)N2CCC3(CC2)OC(=O)Nc2ccc(OC)cc23)c(Br)c1 ?
2.41

Which log10(MIC) is listed for COc1ccc2c(c1)C1(CCN(C(=O)CCC(=O)Nc3ccccc3)CC1)OC(=O)N2 ?
2.41

Which log10(MIC) is listed for COc1ccc2c(c1)C1(CCN(C(=O)/C=C/C(=O)Nc3cc(C)cc(C)c3)CC1)OC(=O)N2 ?
2.71

Which log10(MIC) is listed for COc1ccc2c(c1)C1(CCN(C(=O)/C=C/C(=O)Nc3ccc(C)cc3)CC1)OC(=O)N2 ?
2.41

Which log10(MIC) is listed for COc1ccc(NC(=O)C(O)C(O)C(=O)N2CCC3(CC2)OC(=O)Nc2ccc(OC)cc23)cc1 (configuration not stated) ?
2.71

====

System: Candida tropicalis
Assay: Inhibition of Candida tropicalis ATCC 750 chitin synthase using UDP-GlcNAc as substrate at 300 ug/ml incubated for 1 hrs by absorbance based assay relative to control
Conditions: dose 300.0 µg/ml
inhibition vs 40%: at or above is criterion met, below is criterion not met.

Below, 3 compounds whose answers are already recorded.
COc1ccc2c(c1)C1(CCN(C(=O)/C=C/C(=O)Nc3ccccc3)CC1)OC(=O)N2    criterion met
COc1ccc2c(c1)C1(CCN(C(=O)/C=C/C(=O)Nc3ccc(Cl)cc3)CC1)OC(=O)N2    criterion met
COc1ccc2c(c1)C1(CCN(C(=O)/C=C/C(=O)Nc3cc(C)cc(C)c3)CC1)OC(=O)N2    criterion not met

I'd appreciate it if you could say whether COc1ccc(NC(=O)CCC(=O)N2CCC3(CC2)OC(=O)Nc2ccc(OC)cc23)cc1 has inhibition at least equal to 40%.
criterion not met

====

Tested on: Candida tropicalis
Assay: Inhibition of Candida tropicalis ATCC 750 chitin synthase using UDP-GlcNAc as substrate at 300 ug/ml incubated for 1 hrs by absorbance based assay relative to control
Details: dose 300.0 µg/ml
quantity_measured: inhibition (%)
Give a bare numeral; the unit % is implied.

COc1ccc2c(c1)C1(CCN(C(=O)/C=C/C(=O)Nc3cccc(C)c3)CC1)OC(=O)N2    42
COc1ccc2c(c1)C1(CCN(C(=O)CC(=O)Nc3ccc(Br)cc3)CC1)OC(=O)N2    18
COc1ccc2c(c1)C1(CCN(C(=O)/C=C/C(=O)Nc3cccc4ccccc34)CC1)OC(=O)N2    46
COc1ccc2c(c1)C1(CCN(C(=O)CCC(=O)Nc3ccc(C)cc3)CC1)OC(=O)N2    11

# ---- query molecule ----
Which inhibition is listed for COc1ccc(NC(=O)CC(=O)N2CCC3(CC2)OC(=O)Nc2ccc(OC)cc23)cc1 ?
16

Numbers sourced from ChEMBL document CHEMBL5331050.
